Each record here notes measured Corn plant response rating.
# Tested on: corn
# measurement description: Test A postemergence
# Type: in vivo, Zea mays
# details: Postemergence, 125 g ai/ha; 0 to 100 scale, 0 no effect, 100 complete control
# Source text: […]

compound_smiles=CCNC(=O)c1cc(CC)n(Oc2cccc(OC(F)(F)F)c2)n1 reported_property="Corn plant response rating" value_observed=0

**Query** If you can, please state the reported Corn plant response rating value of CCc1cc(C(=O)NC2CC2)nn1Oc1cccc(OC(F)(F)F)c1 .
**Result** 0

**Query** If you can, please state the reported Corn plant response rating value of CCc1cc(C(=O)NC2CC2)nn1Oc1cccc(C(F)(F)F)c1 .
**Result** 10

**Query** If you can, please state the reported Corn plant response rating value of CCCNC(=O)c1cc(COC)n(Cc2cc(C(F)(F)C(F)(F)F)nn2C)n1 .
**Result** 10

**Query** If you can, please state the reported Corn plant response rating value of CCc1cc(C(=O)NC2CC2)nn1Cc1cc(C(F)(F)C(F)(F)F)nn1C .
**Result** 50

---

# Test system: morningglory
# measurement description: Test C preemergence
# Type: in vivo, Ipomoea coccinea
# details: preemergence, 125 g ai/ha; 13 to 15 days; scale 0 to 100, 0 = no effect, 100 = complete control
reported property: Plant response rating, Morningglory
# output: bare number, no unit

Past entries and their recorded results:
compound_smiles=CCc1cc(C(=O)NC(C)C)nn1Cc1ccnc(C(F)(F)F)c1 system=morningglory reported_property="Plant response rating, Morningglory" value_observed=98
compound_smiles=CCc1cc(C(=O)NC2CC2)nn1Cc1ccnc(OCC(F)(F)F)c1 system=morningglory reported_property="Plant response rating, Morningglory" value_observed=98
compound_smiles=CCCc1cc(C(=O)NOCC)nn1Cc1ccnc(C(F)(F)F)c1 system=morningglory reported_property="Plant response rating, Morningglory" value_observed=85

**Query** Form: Entry = CCc1cc(C(=O)NCC2CC2)nn1Cc1ccnc(C(F)(F)F)c1 | System = morningglory | Plant response rating, Morningglory = ____
**Result** 98

**Query** Form: Entry = CCCNC(=O)c1cc(CC)n(Cc2ccnc(OC(F)F)c2)n1 | System = morningglory | Plant response rating, Morningglory = ____
**Result** 100

**Query** Form: Entry = CCNC(=O)c1cc(CC)n(Cc2ccnc(C(F)(F)F)c2)n1 | System = morningglory | Plant response rating, Morningglory = ____
**Result** 100

---

# Test system: barnyardgrass
# measurement description: Test A postemergence
# Format: in vivo, Echinochloa crus-galli
# details: Postemergence, 125 g ai/ha; 0 to 100 scale, 0 no effect, 100 complete control
reported property: Barnyardgrass plant response rating
# output: bare number, no unit

Past entries and their recorded results:
compound_smiles=CCNC(=O)c1cc(C)n(Cc2cccc(OC(F)(F)F)c2)n1 reported_property="Barnyardgrass plant response rating" value_observed=10
compound_smiles=Cc1cc(C(=O)NC2CC2)nn1Cc1ccc(F)c(C(F)(F)F)c1 reported_property="Barnyardgrass plant response rating" value_observed=0
compound_smiles=Cc1cc(C(=O)NC2CC2)nn1Cc1cccc(OC(F)(F)F)c1 reported_property="Barnyardgrass plant response rating" value_observed=0

**Query** If you can, please state the reported Barnyardgrass plant response rating value of CCCCNC(=O)c1cc(CC)n(Oc2ccnc(C(F)(F)F)c2)n1 .
**Result** 0

**Query** If you can, please state the reported Barnyardgrass plant response rating value of CCc1cc(C(=O)NCC(F)(F)F)nn1Cc1ccnc(C(F)(F)F)c1 .
**Result** 50

**Query** If you can, please state the reported Barnyardgrass plant response rating value of CCCc1cc(C(=O)NCC(F)(F)F)nn1Oc1ccnc(C(F)(F)F)c1 .
**Result** 0

**Query** If you can, please state the reported Barnyardgrass plant response rating value of Cc1cc(C(=O)NCC(F)(F)C(F)(F)F)nn1Cc1cccc(C(F)(F)F)c1 .
**Result** 0

---

Each record here notes measured Nutsedge, Yellow plant response rating.
# Tested on: nutsedge, yellow
# measurement description: Test C postemergence
# Format: in vivo, Cyperus esculentus
# details: postemergence, 62 g ai/ha; scale 0 to 100
# Source text: […]

Past entries and their recorded results:
compound_smiles=CCCc1cc(C(=O)NCC)nn1Cc1cc(C(F)(F)F)nn1C value_observed=0
compound_smiles=CCOc1cc(C(=O)NC(C)C)nn1Cc1ccnc(C(F)(F)F)c1 value_observed=35
compound_smiles=CCc1cc(C(=O)NCC(F)(F)F)nn1Cc1cc(OC(F)F)nn1C value_observed=0

**Query** If you can, please state the reported Nutsedge, Yellow plant response rating value of CCNC(=O)c1cc(CC)n(Cc2ccnc(OC(F)F)c2)n1 .
**Result** 5

**Query** If you can, please state the reported Nutsedge, Yellow plant response rating value of CCc1cc(C(=O)NC2CC2)nn1Cc1ccnc(OC(F)F)c1 .
**Result** 5

**Query** If you can, please state the reported Nutsedge, Yellow plant response rating value of CCOc1cc(C(=O)NC2CC2)nn1Cc1ccnc(OC(F)F)c1 .
**Result** 5

**Query** If you can, please state the reported Nutsedge, Yellow plant response rating value of CCc1cc(C(=O)NC(C)C)nn1Cc1ccnc(C(F)(F)F)c1 .
**Result** 5

---

Each record here notes measured Pigweed plant response rating.
# System: pigweed
# measurement description: Test C preemergence
# Assay type: in vivo, Amaranthus retroflexus
# details: preemergence, 62 g ai/ha; scale 0 to 100 (0 no effect, 100 complete control), 13 to 15 days
# output: bare number, no unit

Past entries and their recorded results:
compound_smiles=CCONC(=O)c1cc(CC)n(Cc2cc(C(F)(F)F)no2)n1 system=pigweed reported_property="Pigweed plant response rating" value_observed=75
compound_smiles=CCCc1cc(C(=O)NCC(F)(F)F)nn1Cc1ccnc(C(F)(F)F)c1 system=pigweed reported_property="Pigweed plant response rating" value_observed=100
compound_smiles=CCCNC(=O)c1cc(CCC)n(Cc2cc(C(F)(F)F)nn2C)n1 system=pigweed reported_property="Pigweed plant response rating" value_observed=100
compound_smiles=CCNC(=O)c1cc(CC)n(Cc2ccnc(OC(F)F)c2)n1 system=pigweed reported_property="Pigweed plant response rating" value_observed=100
compound_smiles=CCCc1cc(C(=O)NOCC)nn1Cc1ccnc(C(F)(F)F)c1 system=pigweed reported_property="Pigweed plant response rating" value_observed=100
compound_smiles=CCc1cc(C(=O)NC(C)C)nn1Cc1ccnc(C(F)(F)F)c1 system=pigweed reported_property="Pigweed plant response rating" value_observed=90
compound_smiles=CCOc1cc(C(=O)NC2CC2)nn1Cc1ccnc(OC(F)F)c1 system=pigweed reported_property="Pigweed plant response rating" value_observed=75

Pending molecule:
**Query** Form: Entry = CCCc1cc(C(=O)NCC)nn1Cc1cc(C(F)(F)F)nn1C | System = pigweed | Pigweed plant response rating = ____
**Result** 100

---

# Test system: pigweed
# measurement description: Test C preemergence
# Type: in vivo, Amaranthus retroflexus
# details: preemergence, 31 g ai/ha; visual rating, scale 0 to 100 (0 no effect, 100 complete control), 13 to 15 days
reported property: Pigweed plant response rating
# output: bare number, no unit

Past entries and their recorded results:
compound=CCCNC(=O)c1cc(CCC)n(Cc2cc(C(F)(F)F)nn2C)n1 value_observed=100
compound="CCc1cc(C(=O)NC(C)C)nn1Cc1ccnc(C(F)(F)F)c1 [Compound 103]" value_observed=100
compound=CCc1cc(C(=O)NC2CC2)nn1Cc1ccnc(OC(F)F)c1 value_observed=100
compound=CCNC(=O)c1cc(CC)n(Cc2ccnc(C(F)(F)F)c2)n1 value_observed=98
compound=CCONC(=O)c1cc(CC)n(Cc2cc(C(F)(F)F)no2)n1 value_observed=65
compound="CCc1cc(C(=O)NC(C)C)nn1Cc1ccnc(C(F)(F)F)c1 [Compound 139]" value_observed=55

Pending compound:
**Query** If you can, please state the reported Pigweed plant response rating value of CCOc1cc(C(=O)NC2CC2)nn1Cc1ccnc(OC(F)F)c1 .
**Result** 100

---

# Test system: foxtail, giant
# measurement description: Test A preemergence
# Type: in vivo, Setaria faberii
# details: preemergence, 125 g ai/ha, visual injury approx. 10 days after treatment
# Text: […]
Each record here notes measured Foxtail, Giant plant response rating (0 to 100 scale).
# output: bare number, no unit

Past entries and their recorded results:
compound_smiles=CCc1cc(C(=O)NC2CC2)nn1Cc1ccnc(OCC(F)(F)F)c1 value_observed=100
compound_smiles=CCc1cc(C(=O)NC2CC2)nn1Oc1cccc(OC(F)(F)F)c1 value_observed=0
compound_smiles=CCc1cc(C(=O)NC2CC2)nn1Oc1cccc(C(F)(F)F)c1 value_observed=10
compound_smiles=CCCNC(=O)c1cc(COC)n(Cc2cc(C(F)(F)C(F)(F)F)nn2C)n1 value_observed=30
compound_smiles=CCCNC(=O)c1cc(CCCl)n(Cc2ccnc(C(F)(F)F)c2)n1 value_observed=100

**Query** If you can, please state the reported Foxtail, Giant plant response rating (0 to 100 scale) value of O=C(NC1CC1)c1cc(Br)n(Cc2cccc(C(F)(F)F)c2)n1 .
**Result** 0
